assay.system: human DGKζ (Homo sapiens)
Construct: TVMV protease cleavage site (C); Hexa-His (C); made in house; host or cells: Sf9 insect cells (baculovirus, Bac-to-Bac)
assay.overview: DGKζ LIPGLO assay (extruded liposome substrate), in vitro DGK inhibition
Format: biochemical
run.parameters: DGKζ liposome (LIPGLO) assay; read-out: DGKz LIPGLO IC50
pIC50: −log10 of the molar value.
quantity.kind: pIC50

{"molecule": "Cc1ccc(C(c2ccc(Cl)cc2)N2CCN(c3c(C#N)c(=O)n(C)c4ccc(C#N)nc34)C[C@H]2C)cc1 (mixture of isomers) [Example 907]", "assay.system": "human DGKζ (Homo sapiens)", "reading": 5.82}
{"molecule": "Cc1ccc(C(c2ccc(F)cc2)N2CCN(c3c(C#N)c(=O)n(C)c4ccc(C#N)nc34)C[C@H]2C)nc1 (single isomer, unassigned) [Example 904]", "assay.system": "human DGKζ (Homo sapiens)", "reading": 5.85}
{"molecule": "C[C@@H]1CN(c2c(C#N)c(=O)n(C)c3ccc(C#N)nc23)CCN1C(c1ccc(Cl)cc1)c1ccc(F)cn1 (single isomer, unassigned) [Example 901]", "assay.system": "human DGKζ (Homo sapiens)", "reading": 5.77}
{"molecule": "C[C@@H]1CN(c2c(C#N)c(=O)n(C)c3ccc(C#N)nc23)[C@@H](C)CN1C(c1ccc(F)cc1)c1ccc(C#N)cc1 (single isomer, unassigned) [Example 823]", "assay.system": "human DGKζ (Homo sapiens)", "reading": 4.40}
{"molecule": "C[C@@H]1CN(c2cc(=O)n(C)c3ccc(C#N)nc23)[C@@H](C)CN1C(c1ccc(OC(F)(F)F)cc1)c1nc(C2CC2)no1 (single isomer, unassigned) [Example 759]", "assay.system": "human DGKζ (Homo sapiens)", "reading": 6.54}

P. COC(=O)c1ccc(C(C)N2CCN(c3c(C#N)c(=O)n(C)c4ccc(C#N)nc34)C[C@H]2C)cc1 (stereo partly drawn) [Example 981]
Q. C[C@@H]1CN(c2c(C#N)c(=O)n(C)c3ccc(C#N)nc23)[C@@H](C)CN1C(c1cccc(F)c1)c1ccc(C(F)(F)F)cn1 (single isomer, unassigned) [Example 841]
R. C[C@@H]1CN(c2c(C#N)c(=O)n(C)c3ccc(C#N)nc23)CCN1Cc1ccccc1C#N
S. Cc1c(F)cccc1CN1CCN(c2c(C#N)c(=O)n(C)c3ccc(C#N)nc23)C[C@H]1C
IN: Rank descending by pIC50. Your reply should list the labels following the order given in the request.
OUT: S, R, Q, P
(S: 6.00, R: 5.17, Q: 4.96, P: 4.55)

1. C[C@@H]1CN(c2cc(=O)n(C)c3ccc(C#N)nc23)[C@@H](C)CN1C(c1ccc(F)cc1)c1cnc(C2CC2)s1 (single isomer, unassigned) [Example 727]
2. Cc1ccc(C(C)N2CCN(c3c(C#N)c(=O)n(C)c4ccc(C#N)nc34)C[C@H]2C)cc1 (single isomer, unassigned) [Example 953]
IN: Between the entries labeled 1 and 2 , whose measured pIC50 is lower? Pick one and reply with its label.
OUT: 2

----------
assay.system: human DGKα (Homo sapiens, UniProt P23743)
Construct: TVMV protease cleavage site (C); Hexa-His (C); made in house; host or cells: Sf9 insect cells (baculovirus, Bac-to-Bac)
Sequence (P23743 with tags, fused parts or gaps): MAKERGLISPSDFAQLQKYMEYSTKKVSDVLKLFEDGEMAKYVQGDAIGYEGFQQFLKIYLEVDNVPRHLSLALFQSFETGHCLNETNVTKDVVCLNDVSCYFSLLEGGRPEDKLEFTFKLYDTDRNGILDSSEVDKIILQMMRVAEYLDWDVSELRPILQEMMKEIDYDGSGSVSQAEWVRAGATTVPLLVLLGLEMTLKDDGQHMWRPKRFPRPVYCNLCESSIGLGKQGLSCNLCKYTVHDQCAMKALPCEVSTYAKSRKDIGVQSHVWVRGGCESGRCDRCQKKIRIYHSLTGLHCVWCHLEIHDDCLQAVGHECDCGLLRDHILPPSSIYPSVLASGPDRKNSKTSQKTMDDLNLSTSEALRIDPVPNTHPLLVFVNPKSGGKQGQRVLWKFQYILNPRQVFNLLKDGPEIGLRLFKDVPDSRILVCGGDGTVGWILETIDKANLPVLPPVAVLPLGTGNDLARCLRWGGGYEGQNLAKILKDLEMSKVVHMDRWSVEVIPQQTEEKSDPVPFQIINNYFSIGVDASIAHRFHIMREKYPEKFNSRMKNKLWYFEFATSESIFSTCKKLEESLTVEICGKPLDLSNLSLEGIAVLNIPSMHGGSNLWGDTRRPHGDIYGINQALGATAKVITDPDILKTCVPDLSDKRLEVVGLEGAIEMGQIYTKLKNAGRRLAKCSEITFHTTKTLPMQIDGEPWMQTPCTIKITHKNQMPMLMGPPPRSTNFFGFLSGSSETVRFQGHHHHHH
assay.overview: DGKα LIPGLO assay (extruded liposome substrate), in vitro DGK inhibition
Type: biochemical
run.parameters: liposome (LIPGLO) assay; read-out: DGKa LIPGLO IC50
quantity.kind: IC50 (nM)

{"compound": "COC(=O)C1CN(C(c2ccc(F)cc2)c2ccc(F)cc2)CCN1c1c(C#N)c(=O)n(C)c2ccc(C#N)nc12 (single isomer, unassigned) [Example 117]", "reading": 350}
{"compound": "C[C@@H]1CN(c2cc(=O)n(C)c3ccc(C#N)nc23)[C@@H](C)CN1Cc1ccc(C(C)(C)C)cc1", "reading": 4600}
{"compound": "CC(=O)N1CCOc2c(CN3C[C@H](C)N(c4cc(=O)n(C)c5ccc(C#N)nc45)C[C@H]3C)cccc21", "reading": 1400}
{"compound": "CC[C@@H]1CN(c2cc(=O)n(C)c3ccc(C#N)nc23)[C@@H](C)CN1C(c1ccc(F)cc1)c1cccc(C(F)(F)F)n1 (stereo partly shown) [Example 1113]", "reading": 620}
{"compound": "C[C@@H]1CN(c2cc(=O)n(C)c3ccc(C#N)nc23)[C@@H](C)CN1C(c1ccc(F)cc1)c1cccc(C(F)F)n1 (single isomer, unassigned) [Example 696]", "reading": 240}

P. C[C@@H]1CN(c2cc(=O)n(C)c3ccc(C#N)nc23)[C@@H](C)CN1Cc1cccc2c1OCCN2
Q. C[C@@H]1CN(c2cc(=O)n(C)c3ccc(C#N)nc23)[C@@H](C)CN1C(c1ccc(Cl)cc1)c1cccc2c1OCCO2 (stereo partly shown)
IN: Kindly compare P with Q and tell me which has the lower IC50 figure. The response must carry the label of the picked entry.
OUT: P

1. CCC(c1cc(OC(F)(F)F)ccc1F)N1C[C@H](CC)N(c2cc(=O)n(C)c3ccc(C#N)nc23)C[C@H]1C (single isomer, unassigned) [Example 1381]
2. Cc1ccnc(C(c2ccc(Cl)cc2)N2C[C@H](C)N(c3cc(=O)n(C)c4ccc(C#N)nc34)C[C@H]2C)c1 (single isomer, unassigned) [Example 362]
IN: Param pair: 1 , 2 . Output: the one whose IC50 is numerically greater. Select an item and report its label.
OUT: 1

A. CC[C@@H]1CN(c2cc(=O)n(C)c3ccc(C#N)nc23)[C@@H](C)CN1C(c1ccc(F)cc1)c1ccc(F)cc1
B. Cc1ccc(C(c2ccc(F)cc2)N2C[C@H](C)N(c3cc(=O)n(C)c4ccc(C#N)nc34)C[C@H]2C)cc1 (stereo partly shown) [Example 295]
IN: Which item exceeds the other in IC50, A or B ? Could you answer with the label of the item you picked?
OUT: B
(B: 1800 nM, A: 400 nM)

A. CCC(c1ccc(C2CC2)cc1F)N1C[C@H](C)N(c2cc(=O)n(C)c3ccc(C#N)nc23)C[C@H]1C (stereo partly shown) [Example 1219]
B. CC(c1ccc(C2CC2)cc1F)N1C[C@H](C)N(c2cc(=O)n(C)c3ccc(C#N)nc23)C[C@H]1C (single isomer, unassigned) [Example 1201]
IN: Which shows the larger IC50 value: A or B ? Answer by quoting the chosen item's label.
OUT: B
(B: 13000 nM, A: 67 nM)

----------
assay.system: human DGKζ (Homo sapiens, UniProt Q13574)
Construct: TVMV protease cleavage site (C); Hexa-His (C); made in house; host or cells: Sf9 insect cells (baculovirus, Bac-to-Bac)
Sequence (Q13574 with tags, fused parts or gaps isoform Q13574-4): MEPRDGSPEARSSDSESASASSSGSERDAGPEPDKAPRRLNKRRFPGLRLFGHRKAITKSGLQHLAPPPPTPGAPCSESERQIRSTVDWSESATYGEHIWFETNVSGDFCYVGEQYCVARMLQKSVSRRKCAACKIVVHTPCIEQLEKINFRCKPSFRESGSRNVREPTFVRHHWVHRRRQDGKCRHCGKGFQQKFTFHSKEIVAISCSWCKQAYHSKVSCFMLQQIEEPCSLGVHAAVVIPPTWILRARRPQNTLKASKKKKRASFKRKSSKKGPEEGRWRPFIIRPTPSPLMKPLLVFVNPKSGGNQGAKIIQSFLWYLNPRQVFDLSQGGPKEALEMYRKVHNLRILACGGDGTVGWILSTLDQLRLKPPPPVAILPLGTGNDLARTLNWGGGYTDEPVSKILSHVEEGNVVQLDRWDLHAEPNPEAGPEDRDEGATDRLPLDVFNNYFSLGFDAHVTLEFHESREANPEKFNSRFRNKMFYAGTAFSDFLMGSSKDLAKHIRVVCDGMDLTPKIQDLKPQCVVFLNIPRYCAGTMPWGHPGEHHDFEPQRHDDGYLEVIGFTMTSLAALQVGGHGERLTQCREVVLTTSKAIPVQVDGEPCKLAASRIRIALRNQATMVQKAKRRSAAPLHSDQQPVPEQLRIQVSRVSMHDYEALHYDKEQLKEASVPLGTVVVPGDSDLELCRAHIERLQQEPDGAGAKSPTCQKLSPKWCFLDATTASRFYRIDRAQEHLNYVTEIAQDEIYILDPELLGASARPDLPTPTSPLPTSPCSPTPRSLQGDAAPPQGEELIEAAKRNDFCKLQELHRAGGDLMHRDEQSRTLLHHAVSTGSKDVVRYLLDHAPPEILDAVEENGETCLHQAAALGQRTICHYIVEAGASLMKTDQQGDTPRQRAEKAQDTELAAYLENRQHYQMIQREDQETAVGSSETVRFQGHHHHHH
assay.overview: DGKζ LIPGLO assay (extruded liposome substrate), in vitro DGK inhibition
Format: biochemical
run.parameters: DGKζ liposome (LIPGLO) assay; read-out: DGKz LIPGLO IC50
quantity.kind: IC50 (µM)

{"compound": "CC(c1ccc(Cl)cc1)N1CCN(c2c(C#N)c(=O)n(C)c3ccc(C#N)nc23)C[C@H]1C (single isomer, unassigned) [Example 979]", "endpoint.unit": "µM", "reading": 55}

I. C[C@@H]1CN(c2cc(=O)n(C)c3ccc(C#N)nc23)[C@@H](C)CN1C(c1ccc(F)cc1)c1noc(C(C)(C)C)n1 (single isomer, unassigned) [Example 765]
II. CCc1ccc(C(c2ccc(F)cc2)N2CCN(c3c(C#N)c(=O)n(C)c4ccc(C#N)nc34)C[C@H]2C)cc1 (stereo partly drawn) [Example 884]
IN: For the pair I and II , which member has the lower IC50 number? Mark your selection by writing its label.
OUT: I
(I: 0.13 µM, II: 2.4 µM)

----------
assay.system: human DGKζ (Homo sapiens, UniProt Q13574)
Construct: TVMV protease cleavage site (C); Hexa-His (C); made in house; host or cells: Sf9 insect cells (baculovirus, Bac-to-Bac)
assay.overview: DGKζ LIPGLO assay (extruded liposome substrate), in vitro DGK inhibition
Format: biochemical
run.parameters: DGKζ liposome (LIPGLO) assay; read-out: DGKz LIPGLO IC50
quantity.kind: IC50 (nM)

The cases that follow already have their IC50 on record.
{"compound": "CC(c1ccc(C(F)(F)F)cc1)N1CCN(c2c(C#N)c(=O)n(C)c3ccc(C#N)nc23)C[C@H]1C (single isomer, unassigned)", "assay.system": "human DGKζ (Homo sapiens, UniProt Q13574)", "IC50, nM": 6600}
{"compound": "C[C@@H]1CN(c2c(C#N)c(=O)n(C)c3ccc(C#N)nc23)[C@@H](C)CN1C(c1ccc(F)cc1)c1cc(C(C)(C)C)on1 (single isomer, unassigned) [Example 866]", "assay.system": "human DGKζ (Homo sapiens, UniProt Q13574)", "IC50, nM": 940}

P. CC(C)c1nnc(C(c2ccc(F)cc2)N2C[C@H](C)N(c3cc(=O)n(C)c4ccc(C#N)nc34)C[C@H]2C)s1 (single isomer, unassigned) [Example 773]
Q. CC(c1ccc(Br)cc1)N1C[C@H](C)N(c2c(C#N)c(=O)n(C)c3ccc(C#N)nc23)C[C@H]1C (single isomer, unassigned) [Example 789]
R. CCc1ccc(C(c2ccc(F)cc2)N2C[C@H](C)N(c3c(C#N)c(=O)n(C)c4ccc(C#N)nc34)C[C@H]2C)cc1 (single isomer, unassigned) [Example 811]
IN: Order the entries by their reported IC50, beginning at the minimum. Use the labels to give the requested order.
OUT: P, R, Q
(P: 700 nM, R: 2600 nM, Q: 7000 nM)
